assaySystem: pEGFR (Tyr1068) in PC-9 cells (Ex19Del) (Homo sapiens (Human), UniProt P00533, DEL746-750)
Sequence (P00533 other isoform, or with tags, fused parts or gaps del 746-750): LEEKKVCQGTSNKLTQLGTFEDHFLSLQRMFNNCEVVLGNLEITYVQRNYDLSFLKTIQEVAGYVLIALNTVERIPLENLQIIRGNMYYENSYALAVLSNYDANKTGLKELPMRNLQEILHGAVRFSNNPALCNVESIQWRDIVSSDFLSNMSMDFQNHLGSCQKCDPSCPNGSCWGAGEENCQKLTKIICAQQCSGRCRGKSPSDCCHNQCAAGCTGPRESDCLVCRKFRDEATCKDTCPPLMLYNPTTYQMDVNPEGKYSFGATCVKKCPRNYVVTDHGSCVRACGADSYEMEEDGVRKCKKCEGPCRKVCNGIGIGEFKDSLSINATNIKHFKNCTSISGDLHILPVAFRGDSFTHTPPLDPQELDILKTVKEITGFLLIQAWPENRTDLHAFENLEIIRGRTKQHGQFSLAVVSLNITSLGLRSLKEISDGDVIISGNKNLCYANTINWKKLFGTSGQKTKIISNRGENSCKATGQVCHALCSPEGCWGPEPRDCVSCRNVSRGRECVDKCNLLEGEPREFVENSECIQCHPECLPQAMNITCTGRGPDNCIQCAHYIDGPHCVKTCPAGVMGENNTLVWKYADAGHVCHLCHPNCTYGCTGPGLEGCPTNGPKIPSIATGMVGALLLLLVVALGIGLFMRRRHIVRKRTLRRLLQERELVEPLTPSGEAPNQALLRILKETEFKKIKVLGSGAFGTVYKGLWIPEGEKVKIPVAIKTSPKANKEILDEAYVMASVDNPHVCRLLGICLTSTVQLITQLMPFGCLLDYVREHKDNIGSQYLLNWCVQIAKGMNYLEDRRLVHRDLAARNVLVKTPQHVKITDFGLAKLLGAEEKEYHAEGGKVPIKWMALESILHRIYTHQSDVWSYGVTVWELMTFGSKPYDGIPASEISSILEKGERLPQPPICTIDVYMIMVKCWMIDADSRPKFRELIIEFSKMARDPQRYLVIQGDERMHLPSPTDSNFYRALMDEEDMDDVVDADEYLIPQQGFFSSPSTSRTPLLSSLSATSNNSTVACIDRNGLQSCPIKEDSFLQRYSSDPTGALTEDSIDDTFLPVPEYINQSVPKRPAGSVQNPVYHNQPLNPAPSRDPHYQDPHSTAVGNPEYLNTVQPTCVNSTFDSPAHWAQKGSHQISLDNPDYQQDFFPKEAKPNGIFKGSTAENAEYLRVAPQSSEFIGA
assayProtocol: PC-9 pEGFR AlphaLISA assay
measurementParameters: 4 hours incubation, p-EGFR (Tyr1068) AlphaLISA, read-out: Ext pEGFR_PC-9 Ex19Del IC50
readoutKind: IC50

> print(dat)
                                    compound  readoutkind  endpointvalue
 1  CCOc1cc2ncnc(-c3cn(C)nc3-c3ccccc3)c2nc1NC(=O)[C@]12C[C@H]1CN(C)C2 (single isomer, unassigned) [Example 378]         IC50         1.2 nM
 2  COc1cc2ncnc(-c3cn(C)nc3-c3ccccc3)c2cc1O[C@@H]1CN(C)C[C@H]1F [Example 7]         IC50         5.5 nM
 3  COc1cc2ncnc(-c3cn(C)nc3-c3ccccc3)c2cc1NC(=O)c1cc2n(n1)CCCC2 [Example 225]         IC50         5.1 nM
 4  COc1cc2ncnc(-c3cn(C4CC4)nc3-c3ccccc3)c2nc1NC(=O)C1(C(F)(F)F)CC1 [Example 367]         IC50         0.5 nM
 5  COc1cc2ncnc(-c3cn(CC(F)F)nc3-c3ccccc3)c2cc1NC(=O)c1cccnc1 [Example 353]         IC50         1.6 nM
 6  Cn1cc(-c2cc(F)c3c(-c4cn(C)nc4-c4ccccc4)ncnc3c2)cn1 [Example 439]         IC50         1.7 nM
 7  [2H]C([2H])([2H])n1cc(-c2ncnc3cc(OC)c(NC(=O)C45CC(N(C)C)(C4)C5)nc23)c(-c2ccccc2)n1 [Example 494]         IC50         3.6 nM
 8  CCn1cc(-c2ncnc3cc(OC)c(NC(=O)[C@]45COC[C@H]4C5)cc23)c(-c2ccccc2)n1 [Example 289]         IC50         1.5 nM
 9  COc1cc2ncnc(-c3cn(C)nc3-c3ccccc3)c2nc1NC(=O)[C@@]12C[C@@H]1CN(C)C2 (single isomer, unassigned) [Example 392]         IC50         5.9 nM
10  COc1cc2ncnc(-c3cn(C)nc3-c3c(F)cccc3F)c2cc1OC(=O)N1CCOC[C@@H]1C [Example 67]         IC50        12.4 nM
11  COc1cc2ncnc(-c3cn(C)nc3-c3ccccc3)c2cc1NC(=O)C1C2COCC21 (stereo not drawn) [Example 223]         IC50         3.2 nM
12  COc1cc2ncnc(-c3cn(C)nc3-c3ccccc3)c2cc1NC(=O)c1ccncc1Cl [Example 190]         IC50         1.5 nM
13  CCn1cc(-c2ncnc3cc(OC)c(NC(=O)[C@]45C[C@H]4CN(C)C5)nc23)c(-c2ccc(F)cc2)n1 (single isomer, unassigned) [Example 399]         IC50         1.3 nM
14  CCOc1cc2ncnc(-c3cn(C)nc3-c3ccccc3)c2cc1NC(=O)[C@]12C[C@H]1CN(C)C2 (single isomer, unassigned) [Example 257]         IC50         4.8 nM
15  Cc1n[nH]c(-c2ccccc2)c1-c1ncnc2cc(-c3cnn(C)c3)ccc12 [Example 479]         IC50        25.9 nM
